Experiment: physchem
Details: pH 7, aqueous buffer, thermodynamic from solid
Reported endpoint: solubility

Field: example entries. Status: answers known.
{"Molecule": "COC(=O)c1ccccc1S(=O)(=O)NC(=O)Nc1nc(C)nc(OC)n1", "Reported endpoint": "solubility", "Endpoint result": "1000 to 10000 µg/mL"}
{"Molecule": "COC(=O)c1ccccc1S(=O)(=O)NC(=O)N(C)c1nc(C)nc(OC)n1", "Reported endpoint": "solubility", "Endpoint result": "1000 to 10000 µg/mL"}
{"Molecule": "COC(=O)c1ccccc1CS(=O)(=O)NC(=O)Nc1nc(OC)cc(OC)n1", "Reported endpoint": "solubility", "Endpoint result": "< 1000 µg/mL"}
{"Molecule": "CCOC(=O)c1ccccc1S(=O)(=O)NC(=O)Nc1nc(Cl)cc(OC)n1", "Reported endpoint": "solubility", "Endpoint result": "1000 to 10000 µg/mL"}

Let us examine a further case.
Inquiry: If you can, please state the reported solubility value of `COC(=O)c1ccccc1S(=O)(=O)NC(=O)Nc1nc(C)cc(C)n1` .
Reply text: < 1000 µg/mL
